# Tested on: Staphylococcus aureus
# experimentalProtocol: Antibacterial activity against erythromycin-resistant, methicillin-susceptible Staphylococcus aureus A265 by broth microdilution method
# Assay type: functional
observationType: MIC (µg/mL)
Give a bare numeral; the unit µg/mL is implied.

inputSmiles: CC[C@H]1OC(=O)[C@H](C)[C@@H](OC(=O)NCCc2ccc(OC)c(OC)c2)[C@H](C)[C@@H](O[C@@H]2O[C@H](C)C[C@H](N(C)C)[C@H]2O)[C@](C)(OC)C[C@@H](C)C(=O)[C@@H](C)[C@@H](OC)[C@]1(C)O
targetEntity: Staphylococcus aureus
MIC / µg/mL: 8
--
inputSmiles: CC[C@H]1OC(=O)[C@H](C)[C@@H](OC(=O)NCc2ccc(F)cc2)[C@H](C)[C@@H](O[C@@H]2O[C@H](C)C[C@H](N(C)C)[C@H]2O)[C@](C)(OC)C[C@@H](C)C(=O)[C@@H](C)[C@@H](OC)[C@]1(C)O
targetEntity: Staphylococcus aureus
MIC / µg/mL: 0.125

Next, consider the following compound.
Input: Tell me reported MIC for "CC[C@H]1OC(=O)[C@H](C)[C@@H](OC(=O)NCCc2ccc(F)cc2)[C@H](C)[C@@H](O[C@@H]2O[C@H](C)C[C@H](N(C)C)[C@H]2O)[C@](C)(OC)C[C@@H](C)C(=O)[C@@H](C)[C@@H](OC)[C@]1(C)O" , tested with Staphylococcus aureus.
Output: 2
